target: 3',5'-cyclic-AMP phosphodiesterase 4B (Homo sapiens); test: qHTS Assay for Inhibitors of PDE-IV (AID 607); details: HEK293 ACTOne CNG channel cells, membrane potential fluorescence; series mostly up to 22.9 µM
Inconclusive results are not listed. Activity calls are given as the source filed them. Calls come from the whole dose curve; as a rule, active = well fitted activation curve with a large enough effect in the main read-out, with a control signal flat (not every such curve was filed as active); inconclusive = small, poorly fitted or top-dose-only effect, or effect the other way, or a change in a side signal; inactive = flat fitted curve, though single readings scatter.
QUANTITY MEASURED: outcome

// solved cases for outcome follow
NCC#Cc1ccccc1 = inactive
O=C(Oc1ccccc1)N1CCC2(CCN(Cc3ccccc3)CC2)CC1 = inactive
CCN[C@]1(c2cccs2)CCCCC1=O = inactive
O=C(Nc1ccccc1)N1CCC2(CC1)CCN(C(=O)Oc1ccccc1)CC2 = inactive
CN1CCCC2(CCN(C(=O)c3ccco3)CC2)C1 = inactive
CC(C)[C@@]1(NC(=O)[C@@H]2C[C@H]3c4cccc5[nH]cc(c45)C[C@@H]3N(C)C2)O[C@]2(O)[C@H]3CCCN3C(=O)CN2C1=O = inactive

In plain terms, O=C(OC1CCN(CCCl)CC1)C(c1ccccc1)c1ccccc1 has a documented outcome of inactive

According to the records, this compound CCN1C[C@]2(C)CC[C@H](O)[C@@]34[C@@H]5CC6[C@@H](OC)C[C@@](O)([C@@H]5[C@@H]6O)[C@H](C[C@@H]23)[C@H]14 displays outcome of inactive

Reported outcome for CC[N@+]1(C)CCC[C@@H](OC(=O)C(O)(c2ccccc2)c2ccccc2)C1 was inactive

Reported outcome for C/C=C1\C[N@@+]2(C)CC[C@@]34C(=C(C=O)[C@H]1C[C@H]32)Nc1ccccc14 was inactive

So for CCc1c(C(=O)OC)ncc2[nH]c3cc(OC)c(OC)cc3c12 , the logged outcome turned out to be inactive
